Reference source: patent US20250163127A1

TARGET UNDER TEST: CTLA-4 (human)
Sequence (chain, as listed by the source): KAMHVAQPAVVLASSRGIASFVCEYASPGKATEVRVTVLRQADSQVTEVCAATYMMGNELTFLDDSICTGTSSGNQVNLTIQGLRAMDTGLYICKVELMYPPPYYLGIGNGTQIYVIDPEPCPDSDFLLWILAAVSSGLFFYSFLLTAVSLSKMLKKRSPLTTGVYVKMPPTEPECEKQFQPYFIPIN
EXPERIMENT: flow cytometry, cells expressing CTLA-4
READOUT KIND: MFI (MFI)
Write down the numeric answer in MFI and omit the unit.

Ask: So what's the measured MFI for this one? variant CD80 K54M/L70Q/A91G/Y164H (Fc fusion) VIHVTKEVKEVATLSCGHNVSVEELAQTRIYWQKEKKMVLTMMSGDMNIWPEYMNRTIFDITNNLSIVIQALRPSDEGTYECVVLKYEKDGFKREHLAEVTLSVKADFPTPSISDFEIPTSNIRRIICSTSGGFPEPHLSWLENGEELNAINTTVSQDPETELHAVSSKLDFNMTTNHSFMCLIKYGHLRVNQTFNWNTTKQEHFPDN
Result: 131
